- measurement target: Human immunodeficiency virus type 1 reverse transcriptase (Human immunodeficiency virus 1, UniProt Q72547)
- assay name: Tested against HIV-1 reverse transcriptase (HIV-1 RT) with poly(rA)/(dT)12-18 as template and [methyl-3H]-dTTP as competing substrate
- Assay type: functional
Overview of reported pIC50 across a group of molecules:
Notebook: values listed as pIC50 are -log10 of the concentration (mol/L).

Cc1cn([C@H]2C[C@H](N=[N+]=[N-])[C@@H](CO[P@](=O)(O)O[P@](=O)(O)OP(=O)(O)O)O2)c(=O)[nH]c1=O [ZIDOVUDINE TRIPHOSPHATE] = 8.52

Let us move to another entry and its pIC50.
Problem: Requested read-out: pIC50. Entry: Cc1cn([C@H]2CC(N=[N+]=[N-])C(COP(=S)(S)OP(=O)(O)OP(=O)(O)O)O2)c(=O)[nH]c1=O (some centres not stated)
Solution: 6.03
